# Tested on: juvenile S. japonicum
# ASSAY_METHOD_TEXT: microbe, parasite or virus in culture
# Assay type: cell-based
# CONDITION_CONTEXT: Schistosoma japonicum; juvenile worms, 5 μM, 24 h; read-out: Killing activity 24hr
# Description: Infected Oncomelania hupensis, provided by the Department of Snail Biology, Jiangsu Institute of Parasitic Diseases, were incubated at 25–28 °C, under illumination, for 2 h to hatch S. japonicum cercariae. The cercariae were collected from the water surface with clean cover glass and placed into a centrifuge tube using pre cooled RPMI 1640. Centrifugation was performed for 1 min at 1500 rpm, and then the steps above were repeated. After centrifugation, the supernatant solution was removed. […]
REPORTED_METRIC: killing at 5 µM (%)
State just the number; it will be interpreted in %.

Example results:
- COMPOUND: "C[C@@H]1CC[C@H]2[C@@H](C)C(=O)O[C@@H]3O[C@@]4(C)CC[C@@H]1[C@]32OO4 [AS, artemisinin, reference compound]"
  TESTED_SYSTEM: "juvenile S. japonicum"
  OBSERVED: 34.1
- COMPOUND: "[O-][n+]1onc(-c2ccc(Br)cc2)c1CO [Compound 4c]"
  TESTED_SYSTEM: "juvenile S. japonicum"
  OBSERVED: 24.5

Request: Recorded killing at 5 µM of COc1ccc(-c2no[n+]([O-])c2C#N)cc1 [Compound 7a] , please.
Result: 15.7

* * *

Quick reference for killing at 25 µM among some compounds
# Test system: adult S. japonicum
# ASSAY_METHOD_TEXT: microbe, parasite or virus in culture
# Format: cell-based
# CONDITION_CONTEXT: Schistosoma japonicum; adult worms, 25 μM, 48 h; read-out: Killing activity 48hr
# Method: ICR mice (20–22 g), were obtained from the Shanghai Sub-Center of Experimental Animals, Chinese Academy of Sciences. They were maintained at the Department of Experimental Animals, Jiangsu Institute of Parasitic Diseases. […] Adult worms were cultured in a 24-well culture plate for 30–60 min at 37 °C, in a humid atmosphere with 5 % CO2. […] The adult worm mobility and parasite survival rates were monitored using an inverted phase contrast microscope, at 24, 48 and 72 h. […]
State just the number; it will be interpreted in %.

- COMPOUND: "N#Cc1c(-c2ccc(COc3ccccc3)cc2)no[n+]1[O-]"
  killing at 25 µM [%]: 100
- COMPOUND: "N#Cc1c(-c2ccc(O)cc2)no[n+]1[O-]"
  killing at 25 µM [%]: 66.7

Here is another compound to look at.
Request: API: value(readout= killing at 25 µM, system= adult S. japonicum, query= `Cc1ccc(-c2no[n+]([O-])c2C#N)cc1` )
Result: 100

* * *

Quick reference for killing at 25 µM among some compounds
# Tested on: adult S. japonicum
# ASSAY_METHOD_TEXT: microbe, parasite or virus in culture
# Type: cell-based
# CONDITION_CONTEXT: Schistosoma japonicum; adult worms, 25 μM, 24 h; read-out: Killing activity 24hr
State just the number; it will be interpreted in %.

- COMPOUND: "N#Cc1c(-c2ccc(COc3ccccc3)cc2)no[n+]1[O-] [Compound 23]"
  TESTED_SYSTEM: "adult S. japonicum"
  killing at 25 µM (%): 100
- COMPOUND: "N#Cc1c(-c2ccc(OC/C=C/CBr)cc2)no[n+]1[O-] [Compound 16]"
  TESTED_SYSTEM: "adult S. japonicum"
  killing at 25 µM (%): 50

Request: API: value(readout= killing at 25 µM, system= adult S. japonicum, query= COc1ccc(-c2no[n+]([O-])c2C#N)cc1 [Compound 7a] )
Result: 88.9

Request: Next compound: N#Cc1c(-c2ccc(OCCCCBr)cc2)no[n+]1[O-] [Compound 14]
Result: 75
